System: 186277-243-T-J2-PDC complex spheroids, viability;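 further: spheroids exposed to compounds for 7 days before viability read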
Experiment: Anticancer human tumor 186277-243-T-J2-PDC patient-derived colon adenocarcinoma cell line growth inhibition [RAS]
Conditions: second compound 0.1 µM; first compound 0.000949 µM; active compounds read low
parameter: viability, T/C

Query :: Quick one: viability, T/C of CC1(C)CCC(Nc2ncc(C(F)(F)F)c(-c3c[nH]c4c(P(C)(C)=O)c(C#N)ccc34)n2)CN1 (centres undefined) + C#Cc1c(F)ccc2cc(O)cc(-c3ncc4c(N5CC6CCC(C5)N6)nc(OCC56CCCN5CC(F)C6)nc4c3F)c12 ?
Result :: 50%

Query :: Query: viability, T/C; subject: CCc1c2c(nc3ccc(O)cc13)-c1cc3c(c(=O)n1C2)COC(=O)[C@]3(O)CC + C=CC(=O)N1CCN(c2nc(OCC3CCCN3C)nc3c(F)c(-c4nc(N)cc(C)c4C(F)(F)F)c(Cl)cc23)C(C)C1
Result :: 109%

Query :: Entry CC1(C)CCC(Nc2ncc(C(F)(F)F)c(-c3c[nH]c4c(P(C)(C)=O)c(C#N)ccc34)n2)CN1 (centres undefined) + C=CC(=O)N1CCN(c2nc(OCC3CCCN3C)nc3c(F)c(-c4nc(N)cc(C)c4C(F)(F)F)c(Cl)cc23)C(C)C1 : reported viability, T/C = ?
Result :: 96.6%

Query :: Sample CCc1c2c(nc3ccc(O)cc13)-c1cc3c(c(=O)n1C2)COC(=O)[C@]3(O)CC + C#Cc1c(F)ccc2cc(O)cc(-c3ncc4c(N5CC6CCC(C5)N6)nc(OCC56CCCN5CC(F)C6)nc4c3F)c12 — what was its viability, T/C?
Result :: 35.5%
